- Target desc: T1, bacterially expressed recombinant Mch6 (6His-C terminal tagged protein) (human, UniProt P55211 1-416)
- T1 construct: also called purified Mch6 protein; mammalian ced-3 homolog 6; not shown: C-terminal 6His tag from vector pET21b
- T1 chain: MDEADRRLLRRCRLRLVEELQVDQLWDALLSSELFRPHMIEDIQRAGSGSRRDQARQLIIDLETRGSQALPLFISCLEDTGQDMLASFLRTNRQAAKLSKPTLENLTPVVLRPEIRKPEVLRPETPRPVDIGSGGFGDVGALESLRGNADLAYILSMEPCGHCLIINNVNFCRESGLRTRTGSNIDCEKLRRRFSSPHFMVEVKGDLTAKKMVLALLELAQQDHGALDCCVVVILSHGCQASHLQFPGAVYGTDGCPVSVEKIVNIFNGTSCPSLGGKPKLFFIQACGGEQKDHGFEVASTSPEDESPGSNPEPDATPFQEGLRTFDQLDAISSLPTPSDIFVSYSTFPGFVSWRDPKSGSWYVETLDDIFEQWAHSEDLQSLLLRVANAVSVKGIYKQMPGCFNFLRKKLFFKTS
- Test name: inhibition of the hydrolysis of 50 µM DEVD-AMC by recombinant Mch6 after 30 min preincubation with DEVD-CHO, continuous fluorometric assay
Ends that are not written are not given here.
Endpoint label: Ki

query: Param item = DEVD-aldehyde (Tetrapeptide aldehyde substrate analog; also called DEVD-CHO peptide) [DEVD-CHO (Asp-Glu-Val-Asp-aldehyde)] ; retrieve measured Ki.
result: < 10 nM
